Listed compounds paired with reported viability, T/C
System: 817829-284-R-J1-PDC complex spheroids, viability;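 further: spheroids exposed to the agents for seven days before readout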
Assay: Anticancer human tumor 817829-284-R-J1-PDC patient-derived colon adenocarcinoma cell line growth inhibition [CLK]
Conditions: second compound 0.0316 µM; first compound 0.1 µM; hits give low values
Give just the numeric value; % need not be written.

Sample records with viability, T/C:
compound	quantity.measured	units.symbol	test.value
C=C(F)C(=O)N1CCN(c2nc(OCC3CCCN3C)nc3c2CCN(c2cccc4cccc(Cl)c24)C3)CC1CC#N (stereo unspecified) + CN1CCN(c2cc(C(=O)Nc3cc4cc(-c5cnn(C)c5)ccc4cn3)ccn2)CC1	viability, T/C	%	71.8
CCc1c2c(nc3ccc(O)cc13)-c1cc3c(c(=O)n1C2)COC(=O)[C@]3(O)CC + CN1CCN(c2cc(C(=O)Nc3cc4cc(-c5cnn(C)c5)ccc4cn3)ccn2)CC1	viability, T/C	%	6.83
CCCS(=O)(=O)Nc1ccc(F)c(C(=O)c2c[nH]c3ncc(-c4ccc(Cl)cc4)cc23)c1F + CN1CCN(c2cc(C(=O)Nc3cc4cc(-c5cnn(C)c5)ccc4cn3)ccn2)CC1	viability, T/C	%	41.8
COc1ccc([C@@H](O)c2cc(-c3ncnc4cc(N5CCOCC5)ccc34)c(F)cc2Cl)nn1 + CN1CCN(c2cc(C(=O)Nc3cc4cc(-c5cnn(C)c5)ccc4cn3)ccn2)CC1	viability, T/C	%	69
CC(Nc1ccc2c(c1)OCCn1cc(N3C(=O)OCC3C(F)F)nc1-2)C(N)=O (stereo unspecified) + CNC(=O)c1ccc(Nc2nc(OC3CCCC3)c3c(-c4ccc5nc(C)oc5c4)c[nH]c3n2)c(OC)c1	viability, T/C	%	32.3
C#Cc1c(F)ccc2cc(O)cc(-c3ncc4c(N5CC6CCC(C5)N6)nc(OCC56CCCN5CC(F)C6)nc4c3F)c12 (stereo unspecified) + CN1CCN(c2cc(C(=O)Nc3cc4cc(-c5cnn(C)c5)ccc4cn3)ccn2)CC1	viability, T/C	%	61

Incoming: API: value(readout= viability, T/C, system= 817829-284-R-J1-PDC complex spheroids, viability, query= Cn1ncnc1[C@H]1c2n[nH]c(=O)c3cc(F)cc(c23)N[C@@H]1c1ccc(F)cc1 + CNC(=O)c1ccc(Nc2nc(OC3CCCC3)c3c(-c4ccc5nc(C)oc5c4)c[nH]c3n2)c(OC)c1 );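 further: spheroids exposed to the agents for seven days before readout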
Outgoing: 23.4

Incoming: Record lookup: for 817829-284-R-J1-PDC complex spheroids, viability, what viability, T/C belongs to O=C(c1cc(Cc2n[nH]c(=O)c3ccccc23)ccc1F)N1CCN(C(=O)C2CC2)CC1 + CN1CCN(c2cc(C(=O)Nc3cc4cc(-c5cnn(C)c5)ccc4cn3)ccn2)CC1 ?
Outgoing: 44.3

Incoming: So what viability, T/C did C=CC(=O)N1CCN(c2nc(=O)n(-c3c(C)ccnc3C(C)C)c3nc(-c4c(O)cccc4F)c(F)cc23)C(C)C1 (stereo unspecified) + CN1CCN(c2cc(C(=O)Nc3cc4cc(-c5cnn(C)c5)ccc4cn3)ccn2)CC1 get with 817829-284-R-J1-PDC complex spheroids, viability?
Outgoing: 70.6

Incoming: Reported viability, T/C for 817829-284-R-J1-PDC complex spheroids, viability, given Nc1ccccc1NC(=O)c1ccc(CNC(=O)OCc2cccnc2)cc1 + CN1CCN(c2cc(C(=O)Nc3cc4cc(-c5cnn(C)c5)ccc4cn3)ccn2)CC1 ?
Outgoing: 70.6

Incoming: Fill in the recorded viability, T/C for this compound, with 817829-284-R-J1-PDC complex spheroids, viability as test system: O=c1[nH]cc(F)c(=O)[nH]1 + CN1CCN(c2cc(C(=O)Nc3cc4cc(-c5cnn(C)c5)ccc4cn3)ccn2)CC1
Outgoing: 66.3

Incoming: API: value(readout=viability, T/C, system=817829-284-R-J1-PDC complex spheroids, viability) for record Cn1ncnc1[C@H]1c2n[nH]c(=O)c3cc(F)cc(c23)N[C@@H]1c1ccc(F)cc1 + CN1CCN(c2cc(C(=O)Nc3cc4cc(-c5cnn(C)c5)ccc4cn3)ccn2)CC1;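 further: spheroids exposed to the agents for seven days before readout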
Outgoing: 24.1

Incoming: # get_value(readout= viability, T/C, system= 817829-284-R-J1-PDC complex spheroids, viability) for CC1(C)CCC(CN2CCN(c3ccc(C(=O)NS(=O)(=O)c4ccc(NCC5CCOCC5)c([N+](=O)[O-])c4)c(Oc4cnc5[nH]ccc5c4)c3)CC2)=C(c2ccc(Cl)cc2)C1 + CN1CCN(c2cc(C(=O)Nc3cc4cc(-c5cnn(C)c5)ccc4cn3)ccn2)CC1;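 further: spheroids exposed to the agents for seven days before readout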
Outgoing: 64.9

Incoming: # get_value(readout= viability, T/C, system= 817829-284-R-J1-PDC complex spheroids, viability) for Nc1ccn(C2OC(CO)C(O)C2(F)F)c(=O)n1 (stereo unspecified) + CNC(=O)c1ccc(Nc2nc(OC3CCCC3)c3c(-c4ccc5nc(C)oc5c4)c[nH]c3n2)c(OC)c1;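 further: spheroids exposed to the agents for seven days before readout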
Outgoing: 6.76

Data origin: PubChem BioAssay AID2060599
